test system: Streptococcus pneumoniae 1175; type: cell-based; settings: Streptococcus pneumoniae 1175; microtiter broth dilution
property: MIC S. pneumo. 1175

# annotated cases, reported MIC S. pneumo. 1175 shown
INSERT INTO results (compound, value) VALUES
  ('CCC1OC(=O)C(C)C(=O)C(C)C(OC2OC(C)CC(N(C)C)C2O)C(C)(OC)CC(C)C(=O)C(C)C2N(C3CN(Cc4cccc5nccnc45)C3)C(=O)OC12C (stereo not shown)', '<0.06 µg/mL'),
  ('CC[C@H]1OC(=O)[C@H](C)[C@@H](OC(=O)N2CCCC2)[C@H](C)[C@@H](O[C@@H]2O[C@H](C)C[C@H](N(C)C)[C@H]2O)[C@](C)(OC)C[C@@H](C)C(=O)[C@H](C)[C@H]2N(CC3CN(Cc4nccc5ccccc45)C3)C(=O)O[C@]12C', '<0.06 µg/mL'),
  ('CCC1OC(=O)C(C)C(=O)C(C)C(OC2OC(C)CC(N(C)C)C2O)C(C)(OC)CC(C)C(=O)C(C)C2N(C3CN(S(=O)(=O)c4c(C)noc4C)C3)C(=O)OC12C (stereo not shown)', '0.12 µg/mL'),
  ('CCC1OC(=O)C(C)C(=O)C(C)C(OC2OC(C)CC(N(C)C)C2O)C(C)(OC)CC(C)C(=O)C(C)C2N(C3CN(Cc4cccc5nc[nH]c45)C3)C(=O)OC12C (stereo not shown)', '0.5 µg/mL'),
  ('CCOc1ccc(S(=O)(=O)N2CC(N3C(=O)OC4(C)C(CC)OC(=O)C(C)C(=O)C(C)C(OC5OC(C)CC(N(C)C)C5O)C(C)(OC)CC(C)C(=O)C(C)C34)C2)c2cccnc12 (stereo not shown)', '<0.063 µg/mL'),
  ('CCC1OC(=O)C(C)C(=O)C(C)C(OC2OC(C)CC(N(C)C)C2O)C(C)(OC)CC(C)C(=O)C(C)C2N(C3CN(S(=O)(=O)c4ccc(-c5cnco5)cc4)C3)C(=O)OC12C (stereo not shown)', '<0.06 µg/mL'),
  ('CCC1OC(=O)C(C)C(=O)C(C)C(OC2OC(C)CC(N(C)C)C2O)C(C)(OC)CC(C)C(=O)C(C)C2N(C3CN(S(=O)(=O)c4cccc(-c5cc(C)no5)c4)C3)C(=O)OC12C (stereo not shown)', '<0.06 µg/mL'),
  ('CCC1OC(=O)C(C)C(=O)C(C)C(OC2OC(C)CC(N(C)C)C2O)C(C)(OC)CC(C)C(=O)C(C)C2N(C3CN(S(=O)(=O)c4ccc(C)c5ncccc45)C3)C(=O)OC12C (stereo not shown)', '<0.063 µg/mL');

Please report the measured MIC S. pneumo. 1175 for CCC1OC(=O)C(C)C(=O)C(C)C(OC2OC(C)CC(N(C)C)C2O)C(C)(OC)CC(C)C(=O)C(C)C2N(C3CN(Cc4ccc5ncccc5c4)C3)C(=O)OC12C (stereo not shown) tested on Streptococcus pneumoniae 1175.
0.25 µg/mL

Please report the measured MIC S. pneumo. 1175 for `CC[C@H]1OC(=O)[C@H](C)C(=O)[C@H](C)[C@@H](O[C@@H]2O[C@H](C)C[C@H](N(C)C)[C@H]2O)[C@](C)(OC)C[C@@H](C)C(=O)[C@H](C)[C@H]2N(CC3(C)CN(Cc4cccc5ncccc45)C3)C(=O)O[C@]12C` tested on Streptococcus pneumoniae 1175.
0.25 µg/mL

Please report the measured MIC S. pneumo. 1175 for CCC1OC(=O)C(C)C(=O)C(C)C(OC2OC(C)CC(N(C)C)C2O)C(C)(OC)CC(C)C(=O)C(C)C2N(C3CN(C(=O)Nc4cc(-c5ccc(F)cc5)n[nH]4)C3)C(=O)OC12C (stereo not shown) tested on Streptococcus pneumoniae 1175.
32 µg/mL

Please report the measured MIC S. pneumo. 1175 for CCC1OC(=O)C(C)C(=O)C(C)C(OC2OC(C)CC(N(C)C)C2O)C(C)(OC)CC(C)C(=O)C(C)C2N(C3CN(Cc4c(C)cnc5ncccc45)C3)C(=O)OC12C (stereo not shown) tested on Streptococcus pneumoniae 1175.
<0.063 µg/mL

Please report the measured MIC S. pneumo. 1175 for CCC1OC(=O)C(C)C(=O)C(C)C(OC2OC(C)CC(N(C)C)C2O)C(C)(OC)CC(C)C(=O)C(C)C2N(CC3CN(C(=O)c4ccnc5nc[nH]c45)C3)C(=O)OC12C.O=CO (stereo not shown) tested on Streptococcus pneumoniae 1175.
4 µg/mL

Please report the measured MIC S. pneumo. 1175 for `CC[C@H]1OC(=O)[C@H](C)[C@@H](OC(=O)N2CCCC2)[C@H](C)[C@@H](O[C@@H]2O[C@H](C)C[C@H](N(C)C)[C@H]2O)[C@](C)(OC)C[C@@H](C)C(=O)[C@H](C)[C@H]2N(CC3CN(Cc4nc5ccccc5s4)C3)C(=O)O[C@]12C` tested on Streptococcus pneumoniae 1175.
<0.06 µg/mL

Please report the measured MIC S. pneumo. 1175 for CCC1OC(=O)C(C)C(=O)C(C)C(OC2OC(C)CC(N(C)C)C2O)C(C)(OC)CC(C)C(=O)C(C)C2N(C3CN(S(=O)(=O)c4ccc(-c5nncs5)cc4)C3)C(=O)OC12C (stereo not shown) tested on Streptococcus pneumoniae 1175.
<0.06 µg/mL

Please report the measured MIC S. pneumo. 1175 for CCC1OC(=O)C(C)C(=O)C(C)C(OC2OC(C)CC(N(C)C)C2O)C(C)(OC)CC(C)C(=O)C(C)C2N(C3CN(Cc4ccccn4)C3)C(=O)OC12C (stereo not shown) tested on Streptococcus pneumoniae 1175.
0.12 µg/mL

Please report the measured MIC S. pneumo. 1175 for CCC1OC(=O)C(C)C(=O)C(C)C(OC2OC(C)CC(N(C)C)C2O)C(C)(OC)CC(C)C(=O)C(C)C2N(C3CN(S(=O)(=O)c4ccc(OC(F)F)c5ncccc45)C3)C(=O)OC12C (stereo not shown) tested on Streptococcus pneumoniae 1175.
<0.063 µg/mL

Please report the measured MIC S. pneumo. 1175 for CCC1OC(=O)C(C)C(=O)C(C)C(OC2OC(C)CC(N(C)C)C2O)C(C)(OC)CC(C)C(=O)C(C)C2N(C3CN(S(=O)(=O)c4cccc5nonc45)C3)C(=O)OC12C (stereo not shown) tested on Streptococcus pneumoniae 1175.
<0.06 µg/mL

Please report the measured MIC S. pneumo. 1175 for CCC1OC(=O)C(C)C(=O)C(C)C(OC2OC(C)CC(N(C)C)C2O)C(C)(OC)CC(C)C(=O)C(C)C2N(C3CN(Cc4cccc5ncccc45)C3)C(=O)OC12C (stereo not shown) tested on Streptococcus pneumoniae 1175.
<0.06 µg/mL

These measurements were taken from patent US7462600B2.
